Target: Adenosine receptor A1 (Homo sapiens) (UniProt P30542)
Assay: Allosteric enhancing activity at human adenosine A1 receptor expressed in CHO cells assessed as increase in CCPA-induced [3H]DPCPX displacement at 10 uM after 90 mins relative to control
Assay type: cell-based
In this section, each of the compounds is paired with its reported Ratio Ki.

{"columns": ["MOL SMILES", "Ratio Ki"],
 "data": [
  ["Nc1sc(Br)c(CN2CCN(c3ccccc3)CC2)c1C(=O)c1ccc(Cl)cc1", 4.5],
  ["Nc1sc(-c2ccccc2)c(CN2CCN(c3cccc(C(F)(F)F)c3)CC2)c1C(=O)c1ccc(Cl)cc1", 7.1],
  ["Nc1sc(-c2ccc(Cl)cc2)c(CN2CCN(c3cccc(C(F)(F)F)c3)CC2)c1C(=O)c1ccc(Cl)cc1", 13],
  ["Nc1sc(-c2ccccc2)c(CN2CCN(c3ccc(C(F)(F)F)cc3)CC2)c1C(=O)c1ccc(Cl)cc1", 8.9],
  ["Nc1sc(-c2ccc(Cl)cc2)c(CN2CCN(c3ccc(OC(F)(F)F)cc3)CC2)c1C(=O)c1ccc(Cl)cc1", 8.9],
  ["Cc1sc(N)c(C(=O)c2ccc(Cl)cc2)c1CN1CCN(c2ccc(Cl)c(Cl)c2)CC1", 5.4],
  ["Cc1sc(N)c(C(=O)c2ccc(Cl)cc2)c1CN1CCN(c2ccc(C(F)(F)F)cc2)CC1", 6.8],
  ["Cc1sc(N)c(C(=O)c2ccc(Cl)cc2)c1CN1CCN(c2ccc(F)cc2)CC1", 5.2],
  ["Nc1sc(-c2ccc(Cl)cc2)c(CN2CCN(c3ccc(Cl)c(Cl)c3)CC2)c1C(=O)c1ccc(Cl)cc1", 7.7]
]}

====

Target: Adenosine receptor A1 (Homo sapiens) (UniProt P30542)
Assay: Allosteric enhancing activity at human adenosine A1 receptor expressed in CHO cells assessed as increase in [3H]-2-chloro-N6-cyclopentyladenosine Bmax at 10 uM after 90 mins relative to control
Assay type: cell-based
Classification field: enter 1 (yes) for fold change (FC) values not below 9, 0 (no) for values below it.

{"columns": ["MOL SMILES", "ASSIGNED CATEGORY"],
 "data": [
  ["Nc1sc(-c2ccc(Cl)cc2)c(CN2CCN(c3ccc(F)cc3)CC2)c1C(=O)c1ccc(Cl)cc1", "1 (yes)"],
  ["Cc1sc(N)c(C(=O)c2ccc(Cl)cc2)c1CN1CCN(c2ccc(Cl)c(C(F)(F)F)c2)CC1", "0 (no)"],
  ["Nc1scc(CN2CCN(c3ccc(Cl)cc3)CC2)c1C(=O)c1ccc(Cl)cc1", "0 (no)"],
  ["Nc1sc(-c2ccc(Cl)cc2)c(CN2CCN(c3cccc(C(F)(F)F)c3)CC2)c1C(=O)c1ccc(Cl)cc1", "1 (yes)"],
  ["Cc1sc(N)c(C(=O)c2ccc(Cl)cc2)c1CN1CCN(c2ccc(C#N)cc2)CC1", "0 (no)"],
  ["Nc1sc(-c2ccc(F)cc2)c(CN2CCN(c3ccc(F)cc3)CC2)c1C(=O)c1ccc(Cl)cc1", "1 (yes)"],
  ["Nc1sc(-c2ccccc2)c(CN2CCN(c3cccc(C(F)(F)F)c3)CC2)c1C(=O)c1ccc(Cl)cc1", "0 (no)"],
  ["Cc1sc(N)c(C(=O)c2ccc(Cl)cc2)c1CN1CCN(c2ccc(C(F)(F)F)cc2)CC1", "0 (no)"],
  ["Cc1sc(N)c(C(=O)c2ccc(Cl)cc2)c1CN1CCN(c2cccc(C(F)(F)F)c2)CC1", "0 (no)"],
  ["Nc1sc(-c2ccc(Cl)cc2)c(CN2CCN(c3ccc(C(F)(F)F)cc3)CC2)c1C(=O)c1ccc(Cl)cc1", "1 (yes)"],
  ["CCc1sc(N)c(C(=O)c2ccc(Cl)cc2)c1CN1CCN(c2ccc(Cl)cc2)CC1", "0 (no)"],
  ["Nc1sc(-c2ccccc2)c(CN2CCN(c3ccc(C(F)(F)F)cc3)CC2)c1C(=O)c1ccc(Cl)cc1", "1 (yes)"],
  ["Nc1sc(-c2ccccc2)c(CN2CCN(c3ccc(F)cc3)CC2)c1C(=O)c1ccc(Cl)cc1", "1 (yes)"],
  ["COc1ccc(N2CCN(Cc3c(C)sc(N)c3C(=O)c3ccc(Cl)cc3)CC2)cc1", "0 (no)"],
  ["Cc1sc(N)c(C(=O)c2ccc(Cl)cc2)c1CN1CCN(c2ccc(Br)cc2)CC1", "0 (no)"],
  ["Nc1sc(-c2ccc(Cl)cc2)c(CN2CCN(Cc3ccccc3)CC2)c1C(=O)c1ccc(Cl)cc1", "0 (no)"],
  ["Nc1sc(Br)c(CN2CCN(c3ccc(F)cc3)CC2)c1C(=O)c1ccc(Cl)cc1", "0 (no)"],
  ["CCc1sc(N)c(C(=O)c2ccc(Cl)cc2)c1CN1CCN(c2ccc(F)cc2)CC1", "0 (no)"],
  ["Cc1sc(N)c(C(=O)c2cccc(C(F)(F)F)c2)c1C", "0 (no)"],
  ["Cc1sc(N)c(C(=O)c2ccc(Cl)cc2)c1CN1CCN(c2ccccc2)CC1", "0 (no)"],
  ["Nc1scc(CN2CCN(c3ccc(OC(F)(F)F)cc3)CC2)c1C(=O)c1ccc(Cl)cc1", "0 (no)"],
  ["Nc1sc(-c2ccc(Cl)cc2)c(CN2CCN(c3ccccc3)CC2)c1C(=O)c1ccc(Cl)cc1", "1 (yes)"],
  ["Nc1sc(-c2ccccc2)c(CN2CCN(c3ccccc3)CC2)c1C(=O)c1ccc(Cl)cc1", "1 (yes)"],
  ["Nc1sc(-c2ccc(F)cc2)c(CN2CCN(c3ccccc3)CC2)c1C(=O)c1ccc(Cl)cc1", "1 (yes)"],
  ["Nc1sc(-c2ccccc2)c(CN2CCN(c3ccc(OC(F)(F)F)cc3)CC2)c1C(=O)c1ccc(Cl)cc1", "1 (yes)"],
  ["Nc1sc(-c2ccccc2)c(CN2CCN(c3ccc(Cl)c(C(F)(F)F)c3)CC2)c1C(=O)c1ccc(Cl)cc1", "0 (no)"],
  ["Nc1sc(-c2ccc(Cl)cc2)c(CN2CCN(c3ccc(Cl)cc3)CC2)c1C(=O)c1ccc(Cl)cc1", "1 (yes)"],
  ["Cc1sc(N)c(C(=O)c2ccc(Cl)cc2)c1CN1CCN(Cc2ccccc2)CC1", "0 (no)"],
  ["Nc1sc(-c2ccc(Cl)cc2)c(CN2CCN(c3ccc(Cl)c(C(F)(F)F)c3)CC2)c1C(=O)c1ccc(Cl)cc1", "1 (yes)"],
  ["Nc1sc(-c2ccccc2)c(CN2CCN(c3ccccc3C(F)(F)F)CC2)c1C(=O)c1ccc(Cl)cc1", "0 (no)"],
  ["Nc1sc(-c2ccc(Cl)cc2)c(CN2CCN(c3ccc(OC(F)(F)F)cc3)CC2)c1C(=O)c1ccc(Cl)cc1", "1 (yes)"],
  ["Cc1sc(N)c(C(=O)c2ccc(Cl)cc2)c1CN1CCN(c2ccc(F)cc2)CC1", "0 (no)"],
  ["Nc1scc(CN2CCN(c3ccc(C(F)(F)F)cc3)CC2)c1C(=O)c1ccc(Cl)cc1", "0 (no)"],
  ["Cc1sc(N)c(C(=O)c2ccc(Cl)cc2)c1CN1CCN(c2ccc(I)cc2)CC1", "0 (no)"]
]}

====

Biological target: Adenosine receptor A1 (Homo sapiens) (UniProt P30542)
Assay: Allosteric enhancing activity at human adenosine A1 receptor expressed in CHO cells assessed as inhibition of forskolin-stimulated cAMP accumulation at 10 uM incubated for 10 mins prior to forskolin-stimulation measured after 5 mins by competition protein binding assay
Format: functional, cell-based

{"columns": ["MOL SMILES", "U", "inhibition"],
 "data": [
  ["Cc1ccc(N2CCN(Cc3c(C)sc(N)c3C(=O)c3ccc(Cl)cc3)CC2)cc1", "%", 61],
  ["Cc1sc(N)c(C(=O)c2ccc(Cl)cc2)c1CN1CCN(c2ccc(C(F)(F)F)cc2)CC1", "%", 60],
  ["CCc1sc(N)c(C(=O)c2ccc(Cl)cc2)c1CN1CCN(c2ccc(Cl)cc2)CC1", "%", 60]
]}

====

Target: Adenosine receptor A1 (Homo sapiens)
Sequence (whole entry): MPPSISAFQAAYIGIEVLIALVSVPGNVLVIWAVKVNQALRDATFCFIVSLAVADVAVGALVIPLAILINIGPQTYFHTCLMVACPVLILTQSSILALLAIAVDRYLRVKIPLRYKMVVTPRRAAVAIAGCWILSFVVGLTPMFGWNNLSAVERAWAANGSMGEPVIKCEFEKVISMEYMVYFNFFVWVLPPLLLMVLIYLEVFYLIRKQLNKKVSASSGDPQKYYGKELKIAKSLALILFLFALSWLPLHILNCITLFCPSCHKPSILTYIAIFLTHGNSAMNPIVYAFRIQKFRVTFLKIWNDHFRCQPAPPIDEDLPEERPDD
Assay: Allosteric enhancing activity at human adenosine A1 receptor expressed in CHO cells assessed as inhibition of forskolin-stimulated cAMP accumulation at 100 nM incubated for 10 mins prior to forskolin-stimulation measured after 5 mins by competition protein binding assay in presence of 2-chloro-N6-cyclopentyladenosine
Assay type: functional, cell-based
Param threshold (50%) applies to inhibition; output True when value >= threshold, False when value < threshold.

{"columns": ["MOL SMILES", "EXPERIMENTAL SYSTEM", "ASSIGNED CATEGORY"],
 "data": [
  ["Cc1sc(N)c(C(=O)c2ccc(Cl)cc2)c1CN1CCN(c2cccc(C(F)(F)F)c2)CC1", "Adenosine receptor A1 (Homo sapiens)", "True"],
  ["Nc1sc(-c2ccccc2)c(CN2CCN(c3ccc(Cl)c(C(F)(F)F)c3)CC2)c1C(=O)c1ccc(Cl)cc1", "Adenosine receptor A1 (Homo sapiens)", "True"],
  ["Cc1sc(N)c(C(=O)c2ccc(Cl)cc2)c1CN1CCN(c2cccc(Cl)c2)CC1", "Adenosine receptor A1 (Homo sapiens)", "True"],
  ["Nc1sc(-c2ccccc2)c(CN2CCN(c3ccc(Cl)c(Cl)c3)CC2)c1C(=O)c1ccc(Cl)cc1", "Adenosine receptor A1 (Homo sapiens)", "True"],
  ["Cc1sc(N)c(C(=O)c2ccc(Cl)cc2)c1CN1CCN(c2ccc(I)cc2)CC1", "Adenosine receptor A1 (Homo sapiens)", "False"],
  ["Nc1sc(-c2ccc(Cl)cc2)c(CN2CCN(c3ccccc3)CC2)c1C(=O)c1ccc(Cl)cc1", "Adenosine receptor A1 (Homo sapiens)", "True"]
]}
